- Test system: MDA-MB-231 breast
- Test Method Notes: NCI tumour cell line growth inhibition, 48 h
Measured TGI of individual entries

| Compound | TGI |
| --- | --- |
| CC(=O)OCC1OC(n2c(N)c(C#N)c(-c3ccccc3)c(C#N)c2=S)C(OC(C)=O)C(OC(C)=O)C1OC(C)=O (configuration not stated) | > 100 µM |
| CC(C)=CCc1c(O)cc(/C=C/c2cc(O)c3c(c2)C[C@@H]2C(C)(C)[C@H](O)[C@H](O)C[C@@]2(C)O3)cc1O | > 10 µM |
| Nc1nc(Cl)cc(NCC2(CO)CCC(Cc3ccccc3)C2)n1 (configuration not stated) | > 100 µM |
| COc1ccc2c(c1)c(C1(c3cn(C)c4ccc(OC)cc34)C(=O)Nc3ccc(F)cc31)cn2C | 18.6 µM |
| CN1CCN(c2ccc3nc(-c4cc(C(C)(C)C)c(O)c(C(C)(C)C)c4)[nH]c3c2)CC1 | 4.31 µM |
| CCOc1ccccc1/C=C1\NC(=O)N(/C=C2\C(=O)Oc3ccccc3C2=O)C1=O | > 100 µM |
| CC(=O)Nc1ncc(Sc2ccccc2C(=O)O)s1 | > 100 µM |
| CCOP(=O)(/C=C\n1cnc2c(=O)n(C(C)=O)c(N)nc21)OCC | > 100 µM |
| O=C(O)CSc1cc(-c2ccccc2)nc2ccccc12 | > 100 µM |
| CC1CCCC2=C1C(c1ccc(Cl)cc1)n1c(s/c(=C\c3ccc(Cl)cc3)c1=O)=N2 (configuration not stated) | > 100 µM |
| CC[N+]1(C)CCC(O)(c2ccc(Cl)cc2)C(C(=O)c2ccc(Cl)cc2)C1 (configuration not stated) | 40.5 µM |
| COc1ccc(Cc2nc3cc(C(F)(F)F)ccc3n2CCCN(C)C)cc1 | 64.6 µM |
| CN1C(=O)CNC(=O)[C@H](NC(=O)c2nc3ccccc3cc2O)CSSC[C@H]1C(=O)NCCc1nc2ccccc2cc1O | 27.7 µM |
| CCOC(=O)CC1(O)C=CC(=O)C=C1 | 1.31 µg/mL |
| CCCN1C(=O)CCC2=C1CCc1c2ccc(Cl)c1Cl | 48.7 µM |
| CCP(=O)(CC)C(Cl)(Cl)C(O)C(C)(C)C (configuration not stated) | > 100 µM |
| COc1ccc(/C=C2\CSC/C(=C\c3ccc(OC)c(OC)c3OC)C2=O)c(OC)c1OC | > 100 µM |
| O=C1c2ccccc2C(=O)N1c1ccc(S(=O)(=O)Nc2ncccn2)cc1 | > 100 µM |
| CCc1n[nH]c(=O)n1N1C(=O)C2CC=CCC2C1=O (configuration not stated) | > 100 µM |
| CCCCCCCCCCCCCCCc1cc(O)ccc1N | > 100 µM |
| CC(=O)O[C@H]1C[C@]2(C)C(CCC3O[C@@]32C)[C@@]2(CC(c3ccoc3)OC2O)[C@@H]1C (some centres not stated) | > 100 µM |
| CCCCC(=O)N/N=C/c1cc(I)cc(I)c1O | 29.9 µM |
| CC(C)OP(=O)(CN(C)/C(F)=N\C(F)(F)F)OC(C)C | > 100 µM |
| N#Cc1ccccc1C#C/C=C\C#Cc1ccc(OCCCNC(=O)c2cc3ccccc3[nH]2)cc1 | 28.1 µM |
| C/C(=N\Nc1ccc([N+](=O)[O-])cc1[N+](=O)[O-])c1ccc2ccccc2n1 | > 100 µM |
| [Cu+2].[O-]c1ccc2ccccc2c1N=Nc1ccccc1.[O-]c1ccc2ccccc2c1N=Nc1ccccc1 | > 100 µM |
| CCN(CC)CCOc1ccc(/C=C2\CC3C4CCC5=CC(=O)CC[C@]5(C)C4CC[C@]3(C)C2=O)cc1OC (some centres not stated) | 6.17 µM |
